So I've got a bunch of molecules here, and I need their GI50 values.
test system: U-251; test: NCI tumour cell line growth inhibition, 48 h
Active and inactive are the calls of the source. No stated cut-off is given here; in the data, active = GI50 up to about 1.1 µM and inactive = higher.

# molecule, GI50
data = [
    ("COC(=O)C(Cc1c[nH]c2ccccc12)NC(=O)C(Cc1c[nH]cn1)NC(=O)C1CCC(=O)N1C(=O)OCc1ccccc1 (configuration not stated)", "> 100 µM (inactive)"),
    ("Cc1cc2cc3c(cc2c(-c2ccc(N)cc2)n1)OCO3", "62.5 µM (inactive)"),
    ("CN1C(c2ccccc2)CC(=Nc2ccccc2)CC1c1ccccc1 (configuration not stated)", "6.82 µM (inactive)"),
    ("ClCCN(CC#CCCCC#CCN(CCCl)CCCl)CCCl", "8.43 µM (inactive)"),
    ("Cc1cc(Cl)ccc1NC(=O)CC1SC(Nc2ccccc2Cl)=NC1=O (configuration not stated)", "26.4 µM (inactive)"),
    ("NNC(=O)CSc1nc2ccccc2c(=O)n1N", "19.1 µM (inactive)"),
    ("N#Cc1c(/C=C/c2ccccc2)c2c([nH]c1=S)CCCCC2", "82.2 µM (inactive)"),
    ("COc1cccc(-n2c3nc(=O)n(C)c(=O)c-3nc3ccccc32)c1", "14.4 µM (inactive)"),
]

Please give GI50 for each item listed below.
1. O=C1C2C3C4C1C1C2[C@H](OCc2ccccc2)C3C1[C@H]4OCc1ccccc1 (some centres not stated)
2. NNc1nncn1N
3. COc1cc(-c2cc(=O)c3c(O)c(OC)c(OC)c(OC)c3o2)cc(OC)c1OC
4. CC(C)C(Br)CCC1=CCC(Br)(Br)C1 (configuration not stated)

[reply]
1: 77.3 µM (inactive); 2: > 100 µM (inactive); 3: 3.01 µM (inactive); 4: 15.4 µM (inactive)

---

system: Hs-578T; assay: NCI tumour cell line growth inhibition, 48 h
Active and inactive are the calls of the source. No stated cut-off is given here; in the data, active = GI50 up to about 1.1 µM and inactive = higher.
parameter: GI50

# compound, GI50
records = [
    ("C=C1NC(=O)C(CC(C(=O)C(=O)Nc2c(C)cccc2C(C)(C)C)C(=O)c2ccc3ccccc3c2)C(=O)N1 (stereo not given)", "> 100 µM (inactive)"),
    ("CC1=C(C(=O)OC23CC4CC(CC(C4)C2)C3)C(c2ccccc2OC(F)F)C(C(=O)OC23CC4CC(CC(C4)C2)C3)=C(C)N1 (stereo not given)", "68.2 µM (inactive)"),
    ("NC1CC2C3CCC2C1C3=O (stereo not given)", "> 100 µM (inactive)"),
    ("COC1(OC)C2(Cl)C(Cl)=C(Cl)C1(Cl)C1c3ccc(C(C)=O)c4cccc(c34)C12 (stereo not given)", "> 100 µM (inactive)"),
]

Query compound follows.
# GI50 of NNC1=NC(=O)NC(=O)C1 = > 100 µM (inactive)

---

tested on: UO-31; assay: NCI tumour cell line growth inhibition, 48 h
Calls of active or inactive are those of the source. Cut-off read from the data, not from the text of the source: active = GI50 up to about 1.1 µM and inactive = higher.
Your answer must be one of the following: active, inactive

# compound, label_class
measured = [
    ("Cc1ccc(C)c(N2C/C(=N\\NC(=O)CC#N)C(c3nc4ccccc4s3)C(=O)C2=O)c1 (stereo unspecified)", "inactive"),
    ("Cc1cc(C2CC(O)C(CO)O2)c(F)cc1F (stereo unspecified)", "inactive"),
    ("[N-]=[N+]=CC(=O)C1CCCN1C(=O)c1ccccc1 (stereo unspecified)", "inactive"),
    ("Cc1sc2c(c1C)C(=O)c1cccn1-2", "inactive"),
    ("CC(=O)n1nc(-c2nc3ccccc3nc2Cl)cc1Cl", "inactive"),
]

[ask] // return assay outcome for COC12C=CC(CC1)C1C(=O)c3c(C)c(C)n(C)c3C(=O)C12 (stereo unspecified)
[reply] inactive

[ask] // return assay outcome for NC1CC2C3CCC2C1C3=O (stereo unspecified)
[reply] inactive

[ask] // return assay outcome for COC(=O)[C@](NC(=O)OCc1ccccc1)([C@@H](C)Sc1ccc(C)cc1)C(F)(F)F
[reply] inactive

[ask] // return assay outcome for CC1(C)CC[C@]2(C(=O)O)CC[C@]3(C)C(=CC[C@@H]4[C@@]5(C)CC[C@H](OC6OC(CO)C(O)C(O)C6OC6OC(CO)C(O)C(O)C6O)C(C)(C)[C@@H]5CC[C@]43C)[C@@H]2C1 (stereo partly specified)
[reply] inactive

[ask] // return assay outcome for COc1cccc(C2CC(C)(O)Oc3cc4c(cc32)OCO4)c1 (stereo unspecified)
[reply] inactive

[ask] // return assay outcome for CC12O[Te]34OC1(C)C(C)(O3)C2(C)O4
[reply] inactive

[ask] // return assay outcome for CCC1=C(C)/C(=C/c2[nH]c(CBr)c(CC)c2C)N=C1CBr
[reply] inactive

[ask] // return assay outcome for O=S(=O)(O)CCCc1cccc2ccccc12
[reply] inactive

[ask] // return assay outcome for Cc1cc(Cl)ccc1NC(=O)CC1SC(Nc2ccccc2Cl)=NC1=O (stereo unspecified)
[reply] inactive

[ask] // return assay outcome for CC(C)OC(=O)c1ccc(NCC2=CC(=O)C=CC2=O)cc1Cl
[reply] inactive

[ask] // return assay outcome for CC[C@H]1CN2CCc3cc(OC)c(OC)cc3[C@@H]2C[C@@H]1C[C@H]1NCCc2c1[nH]c1ccc(O)cc21 [TUBULOSINE]
[reply] active

[ask] // return assay outcome for Cc1nc(N)c(-c2ccccc2)s1
[reply] inactive

[ask] // return assay outcome for O=C1/C(=C/c2ccccc2)CCc2ccc(Cl)nc21
[reply] inactive

[ask] // return assay outcome for COc1nc(NC2OC(COC(C)=O)C(OC(C)=O)C(OC(C)=O)C2OC(C)=O)c2c(OC(C)=O)cc(=O)oc2n1 (stereo unspecified)
[reply] inactive

[ask] // return assay outcome for N#Cc1nn(C(N)=O)c(N)c1C#N
[reply] inactive

[ask] // return assay outcome for N#Cc1cc([N+](=O)[O-])ccc1NC(=O)C(=O)C(C(=O)c1ccc2ccccc2c1)C1OCc2ccccc21 (stereo unspecified)
[reply] inactive
